| molecule | melting point |
| --- | --- |
| O=C1c2c(ccc3c2OCCO3)S(=O)(=O)N1CCCCBr | 135 to 136 °C |
| NC12CC3CC(C1)CC(O)(C3)C2 | 260 to 264 °C |
| O=C(O)CCCCCCCCCCCNC(=O)CCCCCCCCCCI | 107 to 110 °C |
| O=C(c1ccc(F)cc1)C1CCN(CCn2c(=O)c3ccccc3n(-c3ccccc3)c2=O)CC1 | 166 °C |
| O=C1c2ccccc2C(=O)N1Nc1ccccc1 | 180 °C |
| CCC(CC)n1c(=O)ccc2cnc(Nc3ccccc3)nc21 | 116 to 118 °C |
| CS(=O)(=O)c1ccc(C(=O)O)c(Cl)c1F | 204 °C |
| Clc1cnc2c(C(Cl)(Cl)Cl)cc(Cl)cc2c1 | 198 °C |
| CC(=O)Nc1ccc(C#N)cc1I | 176 to 181 °C |
| O=c1oc2cccnc2n1CN1CCN(c2cccc(C(F)(F)F)c2)CC1 | 112 to 118 °C |
| Nc1ccccc1NC(=O)/C=C/c1ccccc1I | 194 to 196 °C |
| CC[C@@H]1NC(=O)C[C@@]1(O)C1CC1 | 87 to 102 °C |
| COc1ccc(S(=O)(=O)CC(=O)C(C)C)cc1 | 48 to 49.5 °C |
| Cc1oc(-c2ccc(C(F)(F)F)cc2)nc1-c1ccc2c(Br)c(OC(Cc3ccccc3)C(=O)O)ccc2c1 (stereo unspecified) | 195 to 197 °C |
| Cc1cc(Cl)cc(CO[C@H]2CCCN(Cc3nc(=O)[nH][nH]3)[C@H]2c2ccccc2)c1 | 227 to 228 °C |
| CCOC(=O)c1ncc(Cl)cc1NC(C)=O | 98 to 100 °C |
